target: T1, Bcl-w (c-myc-tagged) (human, UniProt Q92843 1-164)
T1 chain: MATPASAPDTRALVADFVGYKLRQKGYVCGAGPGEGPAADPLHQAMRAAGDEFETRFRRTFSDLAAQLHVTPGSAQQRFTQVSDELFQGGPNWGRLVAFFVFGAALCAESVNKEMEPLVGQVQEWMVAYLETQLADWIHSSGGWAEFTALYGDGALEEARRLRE
measurement_description: fluorescence anisotropy competition
measured_endpoint: pKi
pKi is defined as minus the log10 of a concentration measured in mol/L.

The cases that follow already have their pKi on record.
binder	pKi
Ac-QWIREIAAGLRRFADILNAQVER-NH2 [FS3]	6.08
Ac-QWAREIGAQLRRMADDLNAQYER-NH2 [Puma BH3 peptide (23 residues)]	8.22
Ac-QWVREIAAGLRLAADNVNAQLER-NH2 [FS1]	5.05

Recorded pKi for Ac-QWVREIAAGLRRAADDVNAQVER-NH2 [FS2] , please?
5.14

This collection of values is drawn from patent US20190185531A1.
